Below: a set of entries, each annotated with reported Inhibition rate of writhing response (%).
System: writhing response
Experiment: Analgesic effect: acetic acid-induced writhing response
Assay type: in vivo, ICR mice
Conditions: 50 mg/kg intragastric, versus model group

{"columns": ["MOLECULE", "Inhibition rate of writhing response (%)"],
 "data": [
  ["COc1ccccc1-c1cc(CNC(=O)C2(C)CCC3(C)CCC4(C)C(=CCC5C6(C)CCC(O)C(C)(C)C6CCC54C)C3C2)on1 (stereo not drawn)", 60.7],
  ["CC1(C(=O)NCc2cc(-c3ccc(F)cc3)no2)CCC2(C)CCC3(C)C(=CCC4C5(C)CCC(O)C(C)(C)C5CCC43C)C2C1 (stereo not drawn)", 9.8],
  ["Cc1cc(CNC(=O)C2(C)CCC3(C)CCC4(C)C(=CCC5C6(C)CCC(O)C(C)(C)C6CCC54C)C3C2)on1 (stereo not drawn)", 22.4],
  ["CC1(C)[C@@H](O)CC[C@]2(C)[C@H]3CC=C4[C@@H]5C[C@@](C)(C(=O)NCc6cc(-c7ccccc7Cl)no6)CC[C@]5(C)CC[C@@]4(C)[C@]3(C)CC[C@@H]12", 67.8],
  ["CC1(C(=O)NCc2cc(-c3ccc(O)cc3)no2)CCC2(C)CCC3(C)C(=CC(=O)C4C5(C)CCC(O)C(C)(C)C5CCC43C)C2C1 (stereo not drawn)", 19.7],
  ["CC1(C(=O)NCc2cc(-c3cccc(Cl)c3)no2)CCC2(C)CCC3(C)C(=CCC4C5(C)CCC(O)C(C)(C)C5CCC43C)C2C1 (stereo not drawn)", 21.9]
]}
